System: CAKI-1 renal
assay_method_text: NCI tumour cell line growth inhibition, 48 h
Overview of reported TGI across a group of compounds:
measured_attribute: TGI

> print(dat)
                                    compound  value.reported
 1  CC(C)(C)C(=CS(=O)/N=C/c1ccccc1)C(C)(C)C (stereo unspecified)        > 100 µM
 2  CCN(c1cc(-c2ccc(CN3CCOCC3)cc2)cc(C(=O)NCc2c(C)cc(C)[nH]c2=O)c1C)C1CCOCC1        > 100 µM
 3     COc1ccc(CCn2c(=O)c3ccccc3n(C)c2=O)cc1        > 100 µM
 4  O=C1CC(c2[nH]nc3ccccc23)C(=O)N1c1ccccc1 (stereo unspecified)        > 100 µM
 5  Cc1nc(Nc2ccccn2)sc1C(=O)/C=C/c1ccc(Cl)cc1         13.4 µM
 6  N/N=C1\C(=O)N(c2ccc(Cl)cc2Cl)C(=O)C(=O)C1c1nc2ccccc2o1 (stereo unspecified)        > 100 µM
 7        C1=C2CCCC3=Cc4ccccc4OC23Oc2ccccc21        > 100 µM
 8  COc1cc2c(cc1OCCCCCCN1CCN(CC(=O)Nc3ccc(Cl)cc3C(=O)c3ccccc3Cl)CC1)N=CC1CCCN1C2=O (stereo unspecified)        0.421 µM
 9  Cc1nnc2n1N=C(c1ccc(Cl)cc1Cl)/C(=C/c1ccc(-c3ccc([N+](=O)[O-])cc3Cl)o1)S2         84.8 µM
10  O=C(N/N=C/C=C/c1ccccc1)c1ccccc1Nc1ccccc1C(=O)N/N=C/C=C/c1ccccc1        > 100 µM
11  CCCCCCCCNCCC[C@@H](C)[C@H]1CC[C@H]2[C@@H]3[C@H](OCCCN)C[C@H]4C[C@H](OCCCN)CC[C@]4(C)[C@H]3C[C@H](OCCCN)[C@]12C         15.4 µM
12   Cn1c(=O)oc2nc(-c3ccccc3)cc(C(F)(F)F)c21        > 100 µM
13     CN1CCc2c1nc(-c1ccc(Cl)cc1)c1c2N(C)CC1         29.9 µM
14  NN=C(CC(O)(C(F)(F)Cl)C(F)(F)Cl)CC(O)(C(F)(F)Cl)C(F)(F)Cl         > 10 µM
15  CC(Oc1ccccc1Cl)C(=O)NN1C(=O)CSC1c1ccccc1 (stereo unspecified)        > 100 µM
16  O=c1ncccn1C1OC(CO)C(O)C1O (stereo unspecified)        > 100 µM
17  COc1ccc2[nH]c(O)c(/C=c3/cc4c(c(-c5ccc(F)c(OC)c5)n3)=Nc3ccccc3-4)c2c1         36.9 µM
18  Cc1cc(N=C2C=C(Br)C(=O)C(Br)=C2)cc(CN(CC(=O)O)CC(=O)O)c1O        > 100 µM
19              CCOC(=O)CCn1ncc(Cl)c(Cl)c1=O         10.8 µM
20  O=c1[nH]c2nc(NC3CCOCC3)ncc2cc1Oc1ccc(F)cc1F         > 25 µM
21  Cc1nc(Nc2cccnc2)sc1C(=O)/C=C/c1ccc(Cl)cc1         15.1 µM
22             CC(C)=CCNc1nc(Cl)nc2nc[nH]c12        > 100 µM
23  CC1(C)CC(=O)C2(CC(CSc3ccccc3)C(CS(=O)(=O)c3ccccc3)C2)C(=O)C1 (stereo unspecified)        > 100 µM
24  C1CC2CN(CCCN3CCOCC3)C(C1)O2 (stereo unspecified)        > 100 µM
25  CC(C)(C)OC(=O)NCCCn1c2c(c3ccccc3c1=O)C(=O)c1ccccc1-2         22.2 µM
26        c1ccc(/C(=N/Nc2ccncn2)c2ccccn2)cc1        > 100 µM
27  O=C(NCCc1ccccn1)OCc1nc2nc(Cl)nc(N3CCOCC3)c2[nH]1         3.04 µM
28                 Cc1ccccc1N=C(N)Nc1ccccc1C        > 100 µM
29  NNC(=O)C(=O)N/N=C1\CCC(=O)CC1C(=O)CCC(=O)Nc1ccc(Cl)cc1 (stereo unspecified)        > 100 µM
30  CC(C)(C)CC(C)(C)c1cc(O)c(O)c(CN2CCCCC2)c1         27.9 µM
31  CCOP(=O)(O)CN1CCNCCN(CP(=O)(O)OCC)CCNCC1        > 100 µM
32  Cc1cc(O)c(C2=NN(c3ccc(S(N)(=O)=O)cc3)C(c3ccc(Cl)cc3)C2)c(C)c1Cl (stereo unspecified)         18.2 µM
33    CCOC(=O)c1cc2c([N+](=O)[O-])c(N)ccc2s1        > 100 µM
34      S=c1nc(N/N=C/c2ccco2)c2cn[nH]c2[nH]1        > 100 µM
35  CC(C)CCCC(C)[C@H]1CCC2[C@@H]3CCC4Nc5c(cnn5-c5ccccc5)C[C@]4(C)C3CC[C@@]21C (stereo partly specified)         78.4 µM
36     Cc1cccc(C)c1NC(=O)CCc1nc(=S)[nH][nH]1        > 100 µM
37        Cc1c2cc(Cl)c3ccccc3c2c[n+]2ccccc12        > 100 µM
38  Cc1cc2c([nH]c3ccccc32)c(O)c1-c1c(C)cc2c([nH]c3ccccc32)c1O         27.9 µM
39  COc1cc2cc(C(=O)N3CC(COS(C)(=O)=O)c4ccc(O)cc43)[nH]c2c(OC)c1OC (stereo unspecified)     < 0.0001 µM
40  COc1ccc(C(SC2C(O)C(CO)OC2n2ccc(=O)[nH]c2=O)(c2ccccc2)c2ccc(OC)cc2)cc1 (stereo unspecified)        > 100 µM
41  O=C1/C(=C/c2ccccc2)CN(C(=O)CCN2CCCC2)C/C1=C\c1ccccc1         14.8 µM
